B1: Transcription intermediary factor 1-beta, residues 620 to 671; numbered along this chain, Q13263 (parent)
chain: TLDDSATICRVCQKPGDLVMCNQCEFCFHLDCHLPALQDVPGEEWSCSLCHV

# Variants of: B1
# protocol notes: abundance fitness (aPCA) (normalised: wild type 0, dead -1); higher = more abundant; growth selection in yeast, the domain comes from the species named
# stated conditions: Homo sapiens
Decision: abundance fitness compared against -0.1; not below it gives condition met, below it gives condition not met.

Here's what some known entries look like.
- residue change: "L34T"
  label: "condition met"
- residue change: "L49C"
  label: "condition not met"
- residue change: "S48F"
  label: "condition not met"
- residue change: "N22T"
  label: "condition not met"

Q) Check this variant for abundance fitness at or above -0.1: S46K
A) condition met

Q) Check this variant for abundance fitness at or above -0.1: L30R
A) condition met

Q) Check this variant for abundance fitness at or above -0.1: V11A
A) condition not met

Q) Check this variant for abundance fitness at or above -0.1: D4C
A) condition met

Q) Check this variant for abundance fitness at or above -0.1: C21S
A) condition not met

Q) Check this variant for abundance fitness at or above -0.1: F26P
A) condition not met

Q) Check this variant for abundance fitness at or above -0.1: D17Q
A) condition not met

Q) Check this variant for abundance fitness at or above -0.1: D17S
A) condition met

Q) Check this variant for abundance fitness at or above -0.1: Q38K
A) condition not met

Q) Check this variant for abundance fitness at or above -0.1: D17C
A) condition not met

Q) Check this variant for abundance fitness at or above -0.1: T7G
A) condition not met

Q) Check this variant for abundance fitness at or above -0.1: H51C
A) condition not met

Q) Check this variant for abundance fitness at or above -0.1: D31E
A) condition not met

Q) Check this variant for abundance fitness at or above -0.1: R10K
A) condition met

Q) Check this variant for abundance fitness at or above -0.1: H51T
A) condition met

Q) Check this variant for abundance fitness at or above -0.1: P41C
A) condition not met

Q) Check this variant for abundance fitness at or above -0.1: G16I
A) condition not met

Q) Check this variant for abundance fitness at or above -0.1: L34W
A) condition not met

Q) Check this variant for abundance fitness at or above -0.1: C50V
A) condition not met

Q) Check this variant for abundance fitness at or above -0.1: T7Q
A) condition not met

Q) Check this variant for abundance fitness at or above -0.1: P15F
A) condition not met

Q) Check this variant for abundance fitness at or above -0.1: I8L
A) condition met

Q) Check this variant for abundance fitness at or above -0.1: Q13W
A) condition met

Q) Check this variant for abundance fitness at or above -0.1: F28L
A) condition not met

Q) Check this variant for abundance fitness at or above -0.1: E25S
A) condition met
